# Test system: pSTAT1(2)-luciferase reporter in HeLa cells triggered with human OSM
# PROCEDURE_SUMMARY: JAK-STAT signalling assay
# Format: cell-based
# MEASUREMENT_CONTEXT: Homo sapiens, HeLa, HeLa cells, pSTAT1(2)-luciferase reporter, human OSM 33 ng/mL; read-out: JAK-STAT IC50
MEASURED_ENDPOINT: IC50

{"columns": ["MOLECULE", "ASSAYED_SYSTEM", "MEASURED_ENDPOINT", "OBSERVED_RESULT"],
 "data": [
  ["CCc1cc(-c2noc(C)n2)ccc1N(C)c1cc2c(cn1)ncn2C [Compound 147]", "pSTAT1(2)-luciferase reporter in HeLa cells triggered with human OSM", "IC50", "501 to 1000 nM"],
  ["CCc1cc(OC2CCN(S(C)(=O)=O)C2)ccc1N(C)c1cc2c(cn1)ncn2C (stereo not drawn) [Compound 110]", "pSTAT1(2)-luciferase reporter in HeLa cells triggered with human OSM", "IC50", "> 1000 nM"],
  ["CCc1ccccc1N(CC(F)F)c1cc2c(cn1)ncn2C [Compound 284]", "pSTAT1(2)-luciferase reporter in HeLa cells triggered with human OSM", "IC50", "501 to 1000 nM"],
  ["CCc1cc(-c2cnn(CC(N)=O)c2)ccc1N(C)c1cc2c(cn1)ncn2C [Compound 222]", "pSTAT1(2)-luciferase reporter in HeLa cells triggered with human OSM", "IC50", "1 to 500 nM"],
  ["CN(c1ccc(O)cc1)c1cc2c(cn1)ncn2C [Compound 17]", "pSTAT1(2)-luciferase reporter in HeLa cells triggered with human OSM", "IC50", "> 1000 nM"]
]}

Exam item: Using the record for CCc1cc(-c2cnn(CC(=O)C(C)(C)C)c2)ccc1N(C)c1cc2c(cn1)ncn2C [Compound 221] , report its IC50.
Marked response: > 1000 nM

Exam item: Using the record for CCc1cc(CNC)ccc1N(C)c1cc2c(cn1)ncn2C [Compound 135] , report its IC50.
Marked response: > 1000 nM

Exam item: Using the record for CCc1cc(-c2cnn(CC#N)c2)ccc1N(C)c1cc2c(cn1)ncn2C [Compound 209] , report its IC50.
Marked response: 501 to 1000 nM

Exam item: Using the record for CCc1cc(-c2cccnc2)ccc1N(C)c1cc2c(cn1)ncn2C [Compound 94] , report its IC50.
Marked response: 1 to 500 nM

Exam item: Using the record for CCc1cc(O)ccc1N(C)c1cc2c(cn1)ncn2C [Compound 107] , report its IC50.
Marked response: 501 to 1000 nM
